Attribution: paper PMC8945915

Target: SARS-CoV-2 spike receptor-binding domain (SARS-CoV-2-RBD, ~35 kDa) (SARS-CoV-2, UniProt P0DTC2 319-541)
Assay: electrochemical impedance spectroscopy (Langmuir isotherm)
quantity-kind: pKd
Lab note: report pKd as minus log10 of the concentration in molar units, number only.

[Q] Recorded pKd for thiol-terminal SARS-CoV-2-RBD aptamer (ssDNA, 5' SH-(CH2)6 thiol) DNA: CAGCACCGACCTTGTGCTTTGGGAGTGCTGGTCCAAGGGCGTTAATGGACA , please?
[A] 9.38
